assayedSystem: Delta-type opioid receptor (Homo sapiens, UniProt P41143)
Sequence (P41143 whole entry): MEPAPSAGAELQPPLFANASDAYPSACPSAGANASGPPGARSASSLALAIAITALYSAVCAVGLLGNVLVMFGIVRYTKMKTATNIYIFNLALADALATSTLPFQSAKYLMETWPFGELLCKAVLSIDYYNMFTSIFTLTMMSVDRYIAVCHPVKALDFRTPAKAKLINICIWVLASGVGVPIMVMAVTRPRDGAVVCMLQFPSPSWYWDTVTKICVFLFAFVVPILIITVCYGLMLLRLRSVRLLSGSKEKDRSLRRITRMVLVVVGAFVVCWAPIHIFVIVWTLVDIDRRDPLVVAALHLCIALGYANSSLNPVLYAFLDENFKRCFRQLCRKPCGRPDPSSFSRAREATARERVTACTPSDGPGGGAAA
methodDescription: Displacement of [3H]Cl-DPDPE from human recombinant DOR expressed in CHO cells
Labelling: Ki reported below 1 nM becomes fulfilled; at or above becomes not fulfilled.

A selection of reference data follows.
Cc1ccc(/C=C/C(=O)N[C@@]23CCC(=O)[C@@H]4Oc5c(O)ccc6c5[C@@]42CCN(C)[C@@H]3C6)cc1 | not fulfilled
COc1ccc2c3c1O[C@H]1C(=O)CC[C@@]4(NC(=O)/C=C/c5ccccc5Cl)[C@@H](C2)N(C)CC[C@]314 | fulfilled
O=C(/C=C/c1ccccc1Cl)N[C@@]12CCC(=O)[C@@H]3Oc4c(O)ccc5c4[C@@]31CCN(CC1CC1)[C@@H]2C5 | not fulfilled
COc1ccc2c3c1O[C@H]1C(=O)CC[C@@]4(NC(=O)/C=C/c5ccccc5C)[C@@H](C2)N(C)CC[C@]314 | fulfilled
O=C(/C=C/c1ccc(Cl)cc1)N[C@@]12CCC(=O)[C@@H]3Oc4c(O)ccc5c4[C@@]31CCN(CC1CC1)[C@@H]2C5 [CLOCINNAMOX] | not fulfilled

Below: the item to evaluate.
Confirm or reject: Ki of "Cc1ccccc1/C=C/C(=O)N[C@@]12CCC(=O)[C@@H]3Oc4c(O)ccc5c4[C@@]31CCN(C)[C@@H]2C5" lies strictly below 1 nM
fulfilled

---

assayedSystem: Delta-type opioid receptor (Homo sapiens)
testConditions: CHO
Description: Reversal of stimulation of [35S]GTP-gamma-S binding to human recombinant DOR transfected in CHO cells relative to DPDPE
measuredQuantity: Ke (nM)
Supply the numeric figure in nM, leaving out any unit text.

Please review the following examples before continuing.
O=C(/C=C/c1ccccc1Cl)N[C@@]12CCC(=O)[C@@H]3Oc4c(O)ccc5c4[C@@]31CCN(CC1CC1)[C@@H]2C5 | 0.67
COc1ccc2c3c1O[C@H]1C(=O)CC[C@@]4(NC(=O)/C=C/c5ccc(Cl)cc5)[C@@H](C2)N(CC2CC2)CC[C@]314 | 7.2
Cc1ccc(/C=C/C(=O)N[C@@]23CCC(=O)[C@@H]4Oc5c(O)ccc6c5[C@@]42CCN(C)[C@@H]3C6)cc1 | 2.2
CN1CC[C@]23c4c5ccc(O)c4O[C@H]2C(=O)CC[C@@]3(NC(=O)/C=C/c2ccc([N+](=O)[O-])cc2)[C@H]1C5 | 1.4
Cc1ccccc1/C=C/C(=O)N[C@@]12CCC(=O)[C@@H]3Oc4c(O)ccc5c4[C@@]31CCN(CC1CC1)[C@@H]2C5 | 0.4

Consider the additional molecule presented here.
# Ke lookup, item O=C(/C=C/c1ccc(Cl)cc1)N[C@@]12CCC(=O)[C@@H]3Oc4c(O)ccc5c4[C@@]31CCN(CC1CC1)[C@@H]2C5 [CLOCINNAMOX]
0.19

---

Reported EC50 by item:
assayedSystem: Mu-type opioid receptor (Homo sapiens)
Sequence (P35372 whole entry): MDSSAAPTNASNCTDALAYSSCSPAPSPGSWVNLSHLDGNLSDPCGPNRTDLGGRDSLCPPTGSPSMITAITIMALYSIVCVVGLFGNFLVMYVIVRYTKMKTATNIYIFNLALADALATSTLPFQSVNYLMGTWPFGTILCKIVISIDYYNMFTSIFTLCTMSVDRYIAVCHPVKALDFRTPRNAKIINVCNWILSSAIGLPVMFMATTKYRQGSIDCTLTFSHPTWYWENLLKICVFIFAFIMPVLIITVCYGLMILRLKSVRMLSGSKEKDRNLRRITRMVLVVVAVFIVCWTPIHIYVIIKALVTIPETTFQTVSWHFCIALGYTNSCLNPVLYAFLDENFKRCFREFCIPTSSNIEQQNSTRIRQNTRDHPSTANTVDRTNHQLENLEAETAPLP
methodDescription: Stimulation of [35S]GTPgammaS binding to human recombinant MOR
Supply the numeric figure in nM, leaving out any unit text.

Please review the following examples before continuing.
COc1ccc2c3c1O[C@H]1C(=O)CC[C@@]4(NC(=O)/C=C/c5ccccc5C)[C@@H](C2)N(C)CC[C@]314 | 0.5
COc1ccc2c3c1O[C@H]1C(=O)CC[C@@]4(NC(=O)/C=C/c5ccccc5Cl)[C@@H](C2)N(C)CC[C@]314 | 0.5

What EC50 appears in the records for this compound with Mu-type opioid receptor (Homo sapiens)? "COc1ccc2c3c1O[C@H]1C(=O)CC[C@@]4(NC(=O)/C=C/c5ccccc5Cl)[C@@H](C2)N(CC2CC2)CC[C@]314"
3.8

What do we get for "COc1ccc2c3c1O[C@H]1C(=O)CC[C@@]4(NC(=O)/C=C/c5ccccc5C)[C@@H](C2)N(CC2CC2)CC[C@]314" ?
2.6

What do we get for "CN1CC[C@]23c4c5cccc4O[C@H]2C(=O)CC[C@@]3(NC(=O)/C=C/c2ccccc2Cl)[C@H]1C5" ?
0.04

What do we get for "Cc1ccccc1/C=C/C(=O)N[C@@]12CCC(=O)[C@@H]3Oc4c(O)ccc5c4[C@@]31CCN(C)[C@@H]2C5" ?
0.04

What do we get for "COc1ccc2c3c1O[C@H]1C(=O)CC[C@@]4(NC(=O)/C=C/c5ccc(C)cc5)[C@@H](C2)N(C)CC[C@]314" ?
2.5

What do we get for "COc1ccc2c3c1O[C@H]1C(=O)CC[C@@]4(NC(=O)/C=C/c5ccc(Cl)cc5)[C@@H](C2)N(C)CC[C@]314" ?
0.9

---

Test system: Mus musculus
methodDescription: Agonist activity in sc dosed mouse by tail flick assay
Assay type: functional
measuredQuantity: ED50

Please review the following examples before continuing.
CN1CC[C@]23c4c5cccc4O[C@H]2C(=O)CC[C@@]3(NC(=O)/C=C/c2ccccc2Cl)[C@H]1C5 | 0.12 mg/kg
COc1ccc2c3c1O[C@H]1C(=O)CC[C@@]4(NC(=O)/C=C/c5ccc(C)cc5)[C@@H](C2)N(C)CC[C@]314 | 0.06 mg/kg
O=C(/C=C/c1ccccc1)N[C@@]12CCC(=O)[C@@H]3Oc4c(O)ccc5c4[C@@]31CCN(CC1CC1)[C@@H]2C5 | > 30 mg/kg
Cc1ccccc1/C=C/C(=O)N[C@@]12CCC(=O)[C@@H]3Oc4c(O)ccc5c4[C@@]31CCN(CC1CC1)[C@@H]2C5 | > 30 mg/kg
Cc1ccc(CCC(=O)N[C@@]23CCC(=O)[C@@H]4Oc5c(O)ccc6c5[C@@]42CCN(C)[C@@H]3C6)cc1 | 0.5 mg/kg
COc1ccc2c3c1O[C@H]1C(=O)CC[C@@]4(NC(=O)/C=C/c5ccc(Cl)cc5)[C@@H](C2)N(CC2CC2)CC[C@]314 | > 30 mg/kg

# ED50 lookup, item "CN1CC[C@]23c4c5ccc(O)c4O[C@H]2C(=O)C=C[C@@]3(NC(=O)/C=C/c2ccc(Cl)cc2)[C@H]1C5"
0.5 mg/kg

What do we get for "Cc1ccccc1/C=C/C(=O)N[C@@]12CCC(=O)[C@@H]3Oc4c(O)ccc5c4[C@@]31CCN(C)[C@@H]2C5" ?
0.08 mg/kg

What do we get for "COc1ccc2c3c1O[C@H]1C(=O)CC[C@@]4(NC(=O)/C=C/c5ccc(Cl)cc5)[C@@H](C2)N(C)CC[C@]314" ?
0.04 mg/kg

What do we get for "Cc1ccc(/C=C/C(=O)N[C@@]23CCC(=O)[C@@H]4Oc5c(O)ccc6c5[C@@]42CCN(C)[C@@H]3C6)cc1" ?
> 30 mg/kg

What do we get for "COc1ccc2c3c1O[C@H]1C(=O)CC[C@@]4(NC(=O)/C=C/c5ccccc5C)[C@@H](C2)N(CC2CC2)CC[C@]314" ?
0.03 mg/kg

What do we get for "O=C(/C=C/c1ccc(Cl)cc1)N[C@@]12CCC(=O)[C@@H]3Oc4c(O)ccc5c4[C@@]31CCN(CC1CC1)[C@@H]2C5" ?
> 30 mg/kg

What do we get for "COc1ccc2c3c1O[C@H]1C(=O)CC[C@@]4(NC(=O)/C=C/c5ccc(C)cc5)[C@@H](C2)N(CC2CC2)CC[C@]314" ?
> 30 mg/kg

---

assayedSystem: Kappa-type opioid receptor (Homo sapiens)
Sequence (P41145 whole entry): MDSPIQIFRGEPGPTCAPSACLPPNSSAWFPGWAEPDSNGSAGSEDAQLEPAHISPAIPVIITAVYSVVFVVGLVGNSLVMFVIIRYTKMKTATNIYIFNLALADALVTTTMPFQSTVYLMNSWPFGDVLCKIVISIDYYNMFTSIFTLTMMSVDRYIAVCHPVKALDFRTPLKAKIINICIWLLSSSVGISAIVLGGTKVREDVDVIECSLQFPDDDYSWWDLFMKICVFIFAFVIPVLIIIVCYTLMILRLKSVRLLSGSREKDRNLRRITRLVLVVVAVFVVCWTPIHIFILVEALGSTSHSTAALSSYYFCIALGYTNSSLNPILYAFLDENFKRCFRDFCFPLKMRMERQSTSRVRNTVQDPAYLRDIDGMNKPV
pKi: −log10 of the molar value.
Assign class 1 whenever pKi does not fall below 9; assign class 0 whenever it does.

A selection of reference data follows.
CN1CC[C@]23c4c5ccc(O)c4O[C@H]2C(=O)CC[C@@]3(NC(=O)/C=C/c2ccc([N+](=O)[O-])cc2)[C@H]1C5 | class 0
Cc1ccccc1/C=C/C(=O)N[C@@]12CCC(=O)[C@@H]3Oc4c(O)ccc5c4[C@@]31CCN(C)[C@@H]2C5 | class 1

pKi >= 9 for "COc1ccc2c3c1O[C@H]1C(=O)CC[C@@]4(NC(=O)/C=C/c5ccccc5C)[C@@H](C2)N(C)CC[C@]314" ?
class 0

What do we get for "O=C(/C=C/c1ccccc1Cl)N[C@@]12CCC(=O)[C@@H]3Oc4c(O)ccc5c4[C@@]31CCN(CC1CC1)[C@@H]2C5" ?
class 0

What do we get for "COc1ccc2c3c1O[C@H]1C(=O)CC[C@@]4(NC(=O)/C=C/c5ccccc5Cl)[C@@H](C2)N(C)CC[C@]314" ?
class 0

What do we get for "COc1ccc2c3c1O[C@H]1C(=O)CC[C@@]4(NC(=O)/C=C/c5ccc(C)cc5)[C@@H](C2)N(C)CC[C@]314" ?
class 0

---

assayedSystem: Delta-type opioid receptor (Homo sapiens)
methodDescription: Stimulation of [35S]GTP-gamma-S binding to human recombinant DOR
measuredQuantity: pEC50
pEC50 is a log-scale quantity: -log10 of the concentration expressed in molar.

Please review the following examples before continuing.
COc1ccc2c3c1O[C@H]1C(=O)CC[C@@]4(NC(=O)/C=C/c5ccccc5C)[C@@H](C2)N(C)CC[C@]314 | 8.34
Cc1ccccc1/C=C/C(=O)N[C@@]12CCC(=O)[C@@H]3Oc4c(O)ccc5c4[C@@]31CCN(C)[C@@H]2C5 | 9.40
COc1ccc2c3c1O[C@H]1C(=O)CC[C@@]4(NC(=O)/C=C/c5ccccc5Cl)[C@@H](C2)N(C)CC[C@]314 | 8.66
COc1ccc2c3c1O[C@H]1C(=O)CC[C@@]4(NC(=O)/C=C/c5ccc(C)cc5)[C@@H](C2)N(C)CC[C@]314 | 7.12
COc1ccc2c3c1O[C@H]1C(=O)CC[C@@]4(NC(=O)/C=C/c5ccc(Cl)cc5)[C@@H](C2)N(C)CC[C@]314 | 8.30

# pEC50 lookup, item "CN1CC[C@]23c4c5cccc4O[C@H]2C(=O)CC[C@@]3(NC(=O)/C=C/c2ccccc2Cl)[C@H]1C5"
10.00

What do we get for "COc1ccc2c3c1O[C@H]1C(=O)CC[C@@]4(NC(=O)/C=C/c5ccccc5Cl)[C@@H](C2)N(CC2CC2)CC[C@]314" ?
7.76

What do we get for "COc1ccc2c3c1O[C@H]1C(=O)CC[C@@]4(NC(=O)/C=C/c5ccccc5C)[C@@H](C2)N(CC2CC2)CC[C@]314" ?
7.68
